Below, each entry is listed alongside its reported pKa.
Assay: pKa' measurement
Type: physicochemical
Settings: 40% aqueous methanol; read-out: pKa'
Excerpt: 4. pKa' less than 6 (measured in 40% aqueous methanol) 4. pKa 7.03 (measured in 40% aqueous methanol)
endpoint.name: pKa

[[record]]
compound = "COC1C(OC(C)=O)CC(=O)OC(C)C/C=C/C=C/C(O)C(C)CC(CC=O)C1OC1OC(C)C(OC2CC(C)(O)C(OC(=O)CC(C)C)C(C)O2)C(N(C)C)C1OC(C)=O (centres unmarked) [Monoacetyl-josamycin-1, 2'-acetyl-josamycin]"
endpoint_name = "pKa"
sign_qualifier = "<"
measurement = 6

[[record]]
compound = "COC1C(OC(C)=O)CC(=O)OC(C)C/C=C/C=C/C(OC(C)=O)C(C)CC(CC=O)C1OC1OC(C)C(OC2CC(C)(O)C(OC(=O)CC(C)C)C(C)O2)C(N(C)C)C1O (centres unmarked) [Monoacetyl-josamycin-2, monoacetyl-josamycin-2]"
endpoint_name = "pKa"
sign_qualifier = "="
measurement = 7.03


----------
assay: pKa' measurement; format: physicochemical; details: 40% aqueous methanol
endpoint.name: pKa

[[record]]
molecule = "COC1C(OC(C)=O)CC(=O)OC(C)C/C=C/C=C/C(OC(C)=O)C(C)CC(CC=O)C1OC1OC(C)C(OC2CC(C)(O)C(OC(=O)CC(C)C)C(C)O2)C(N(C)C)C1OC(C)=O (stereo not shown)"
measurement = "< 6"

